target: SARS-COV-2 RBD extracellular domain expressed with a C-terminal mouse IgG2a (SARS-CoV-2); test: SPR Biacore, mAb captured via anti-hFc, 25 C
QUANTITY_NAME: koff (s⁻¹)
Express your answer in s⁻¹, writing the number without its unit.

// solved cases for koff follow
{"BINDER": "mAb11008 (antibody, V domains shown) VH: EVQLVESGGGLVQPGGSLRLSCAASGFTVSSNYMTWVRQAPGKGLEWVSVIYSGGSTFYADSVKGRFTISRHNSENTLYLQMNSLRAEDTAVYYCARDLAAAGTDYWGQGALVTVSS VL: DIQLTQSPSFLSASVGDRVTITCWASQGISSYLAWYQQKPGKAPKLLIYAASTLQSGVPSRFSGSGSGTEFTLTISSLQPDDFATYYCQHLNSYLYTFGQGTKLEIKR", "VALUE_MEASURED": 0.000192}
{"BINDER": "mAb10935 (antibody, V domains shown) VH: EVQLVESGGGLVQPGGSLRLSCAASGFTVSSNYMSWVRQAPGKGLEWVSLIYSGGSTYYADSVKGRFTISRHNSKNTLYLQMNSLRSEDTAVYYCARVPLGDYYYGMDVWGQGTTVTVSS VL: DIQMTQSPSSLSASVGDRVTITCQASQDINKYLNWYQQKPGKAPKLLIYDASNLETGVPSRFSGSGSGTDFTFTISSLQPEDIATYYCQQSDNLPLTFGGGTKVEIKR", "VALUE_MEASURED": 0.000107}

Continue with the next binder.
Hello, please tell me recorded koff for this one: mAb10921 (antibody, V domains shown) VH: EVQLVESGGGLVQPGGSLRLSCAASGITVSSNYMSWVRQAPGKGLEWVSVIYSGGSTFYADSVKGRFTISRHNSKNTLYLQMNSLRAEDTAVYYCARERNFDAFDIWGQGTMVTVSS VL: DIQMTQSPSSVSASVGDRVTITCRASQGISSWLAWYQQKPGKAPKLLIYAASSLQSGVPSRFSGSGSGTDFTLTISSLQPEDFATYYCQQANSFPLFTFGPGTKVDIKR
3.34e-05
